- TESTED ON: human NTCP (Homo sapiens, UniProt Q14973)
- Sequence (Q14973 whole entry): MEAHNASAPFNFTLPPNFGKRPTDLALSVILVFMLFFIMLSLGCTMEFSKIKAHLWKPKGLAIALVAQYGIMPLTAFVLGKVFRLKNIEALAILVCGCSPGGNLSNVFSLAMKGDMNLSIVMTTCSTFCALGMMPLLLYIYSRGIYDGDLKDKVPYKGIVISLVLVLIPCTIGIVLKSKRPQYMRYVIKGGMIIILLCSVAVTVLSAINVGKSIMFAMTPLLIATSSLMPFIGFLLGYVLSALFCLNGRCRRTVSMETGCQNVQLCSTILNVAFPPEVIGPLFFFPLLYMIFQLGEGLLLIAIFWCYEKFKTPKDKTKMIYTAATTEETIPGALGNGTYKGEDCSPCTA
- EXPERIMENTAL PROTOCOL: Screening taurocholate uptake assay (96-well, [14C]taurocholate, 10 µM drug)
- MEASUREMENT CONDITIONS: combined ranking of functional and binding screening assays
Where a name gives a salt, the structure may show the parent alone.
Simple rule here: Ranking score less than 600 is 1.0, otherwise 0.0.

A selection of reference data follows.
CN(C)CCOC(=O)C(c1ccccc1)C1(O)CCCC1 (centres unmarked) [Cyclopentolate hydrochloride]; 0.0
COC(c1ccccc1)(c1ccccc1)[C@H](Oc1nc(C)cc(C)n1)C(=O)O [Ambrisentan]; 0.0
COc1ccc(OC)c(C(O)C(C)N)c1 (centres unmarked) [Methoxamine hydrochloride]; 0.0
CC(C)(C)NCC(O)c1ccccc1Cl (centres unmarked) [Tulobuterol]; 0.0

Is 600 strictly greater than the molecule's reported Ranking score? molecule: CCN(CC)CCNC(=O)c1cc(Cl)c(N)cc1OC.Cl [Metoclopramide monohydrochloride]
0.0

Is 600 strictly greater than the molecule's reported Ranking score? molecule: C#CCN(C)CCCOc1ccc(Cl)cc1Cl [Clorgyline hydrochloride]
0.0

Is 600 strictly greater than the molecule's reported Ranking score? molecule: CC(C)(O/N=C(\C(=O)N[C@@H]1C(=O)N2C(C(=O)[O-])=C(C[n+]3ccccc3)CS[C@H]12)c1csc(N)n1)C(=O)O [Ceftazidime pentahydrate]
1.0

Is 600 strictly greater than the molecule's reported Ranking score? molecule: NS(=O)(=O)c1cc2c(cc1Cl)NCNS2(=O)=O [Hydrochlorothiazide]
1.0

Is 600 strictly greater than the molecule's reported Ranking score? molecule: CCNCC(O)c1cccc(O)c1 (centres unmarked) [Etilefrine hydrochloride]
1.0
